Target: COX-2 murine (Mus musculus, UniProt Q05769)
Construct: human or murine COX-2 was cloned into a BamH1 site of the baculovirus transfer vector pVL1393; made in house; host or cells: SF9 insect cells (recombinant baculovirus, vector pVL1393)
Sequence (Q05769 18-604): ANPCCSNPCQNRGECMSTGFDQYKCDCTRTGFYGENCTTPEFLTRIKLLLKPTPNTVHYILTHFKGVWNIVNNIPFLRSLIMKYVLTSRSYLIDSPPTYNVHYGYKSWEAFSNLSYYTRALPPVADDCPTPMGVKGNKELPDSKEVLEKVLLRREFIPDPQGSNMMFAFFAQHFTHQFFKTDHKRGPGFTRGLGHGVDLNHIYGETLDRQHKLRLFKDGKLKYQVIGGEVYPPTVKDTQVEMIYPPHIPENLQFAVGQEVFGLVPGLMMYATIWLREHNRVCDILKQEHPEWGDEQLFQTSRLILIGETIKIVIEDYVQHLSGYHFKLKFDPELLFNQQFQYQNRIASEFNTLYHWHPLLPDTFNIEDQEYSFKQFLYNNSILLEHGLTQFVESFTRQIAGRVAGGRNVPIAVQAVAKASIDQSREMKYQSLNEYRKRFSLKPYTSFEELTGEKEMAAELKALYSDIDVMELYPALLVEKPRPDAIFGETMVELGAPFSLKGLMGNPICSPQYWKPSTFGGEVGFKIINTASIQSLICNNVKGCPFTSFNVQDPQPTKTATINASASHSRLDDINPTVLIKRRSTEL
Assay Name: COX-2 activity in vitro (recombinant enzyme, PGE2 ELISA)
Type: biochemical
Endpoint Name: IC50

Task: Answer with the recorded IC50 of C#CCOc1cc(-c2ccc(S(C)(=O)=O)cc2)c(-c2ccc(F)cc2)c(C(F)(F)F)n1 [Example 3] only.
Output: > 30 µM

====

Target: COX-1 murine (Mus musculus)
Construct: A 2.0 kb fragment containing the coding region of either human or murine COX-1
Sequence (P22437 27-602): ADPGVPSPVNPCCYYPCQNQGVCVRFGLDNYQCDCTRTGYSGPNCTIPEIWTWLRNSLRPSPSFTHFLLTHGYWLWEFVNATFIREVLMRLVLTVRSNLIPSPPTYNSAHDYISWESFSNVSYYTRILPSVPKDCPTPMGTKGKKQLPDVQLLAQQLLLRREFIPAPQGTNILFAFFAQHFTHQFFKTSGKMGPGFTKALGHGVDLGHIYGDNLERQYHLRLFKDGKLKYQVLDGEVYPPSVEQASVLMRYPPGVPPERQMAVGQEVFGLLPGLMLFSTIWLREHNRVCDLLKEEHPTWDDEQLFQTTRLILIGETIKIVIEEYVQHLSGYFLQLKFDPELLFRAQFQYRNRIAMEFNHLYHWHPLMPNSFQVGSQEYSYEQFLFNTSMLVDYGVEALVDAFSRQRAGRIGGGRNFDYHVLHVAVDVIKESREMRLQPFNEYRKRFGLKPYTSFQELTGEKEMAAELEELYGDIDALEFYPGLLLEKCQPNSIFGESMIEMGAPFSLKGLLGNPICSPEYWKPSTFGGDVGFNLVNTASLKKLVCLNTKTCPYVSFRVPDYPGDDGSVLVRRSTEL
Assay Name: COX-1 activity in vitro (recombinant enzyme, PGE2 ELISA)
Settings: arachidonic acid 10 μM, pH 8.0, pre-incubation 10-20 min, read-out: COX-1 murine ID50
Procedure: Evaluation of COX-1 and COX-2 activity in vitro The COX-2 inhibition activity of the compounds of this invention illustrated in the Examples was determined by the following methods. a. Preparation of recombinant COX baculoviruses […] COX activity was assayed as PGE2 formed/μg protein/time using an ELISA to detect the prostaglandin released. […] The PGE2 formed was measured by standard ELISA technology (Cayman Chemical).
Endpoint Name: IC50
The number alone won't do; follow it with the unit.

Parameters: items (list). Returns: IC50 for each item.
1. CCOc1cc(-c2ccc(S(C)(=O)=O)cc2)c(-c2ccc(F)cc2)c(C(F)(F)F)n1 [Example 2]
2. CS(=O)(=O)c1ccc(-c2cc(Br)nc(C(F)(F)F)c2-c2ccc(F)cc2)cc1 [Example 4]
3. C#CCOc1cc(-c2ccc(S(C)(=O)=O)cc2)c(-c2ccc(F)cc2)c(C(F)(F)F)n1 [Example 3]

Output:
1: 300 nM; 2: 600 nM; 3: 200 nM

Task: Report IC50, nothing else, for this compound: COc1cc(-c2ccc(S(C)(=O)=O)cc2)c(-c2ccc(F)cc2)c(C(F)(F)F)n1 [Example 1]
Output: 300 nM
